Entries and their measured MIC follow.
System: Moraxella catarrhalis
ASSAY OVERVIEW: The compound was evaluated for its anti-bacterial activity against Moraxella catarrhalis UC 30610
Type: functional

For orientation, consider the following solved cases.
COMPOUND SMILES: CCOC(=O)c1cnn(-c2ccc(N3C[C@H](CNC(C)=O)OC3=O)cc2F)c1
MIC: > 16 µg/mL
--
COMPOUND SMILES: CN[C@H](CC(C)C)C(=O)N[C@H]1C(=O)N[C@@H](CC(N)=O)C(=O)N[C@H]2C(=O)N[C@H]3C(=O)N[C@H](C(=O)N[C@H](C(=O)O)c4cc(O)cc(O)c4-c4cc3ccc4O)[C@H](O)c3ccc(c(Cl)c3)Oc3cc2cc(c3O[C@@H]2O[C@H](CO)[C@@H](O)[C@H](O)[C@H]2O[C@H]2C[C@](C)(N)[C@H](O)[C@H](C)O2)Oc2ccc(cc2Cl)[C@H]1O
MIC: > 32 µg/mL

Read the next record carefully.
The recorded MIC for CC(=O)NC[C@H]1CN(c2ccc(-n3cc(C(N)=O)cn3)c(F)c2)C(=O)O1 is > 16 µg/mL

---

Overview of recorded MIC for various compounds
Tested on: Haemophilus influenzae
ASSAY OVERVIEW: The compound was evaluated for its anti-bacterial activity against Haemophilus influenzae UC 30063
Type: functional

COMPOUND SMILES: CN[C@H](CC(C)C)C(=O)N[C@H]1C(=O)N[C@@H](CC(N)=O)C(=O)N[C@H]2C(=O)N[C@H]3C(=O)N[C@H](C(=O)N[C@H](C(=O)O)c4cc(O)cc(O)c4-c4cc3ccc4O)[C@H](O)c3ccc(c(Cl)c3)Oc3cc2cc(c3O[C@@H]2O[C@H](CO)[C@@H](O)[C@H](O)[C@H]2O[C@H]2C[C@](C)(N)[C@H](O)[C@H](C)O2)Oc2ccc(cc2Cl)[C@H]1O
MIC: > 32 µg/mL
//
COMPOUND SMILES: CCOC(=O)c1cnn(-c2ccc(N3C[C@H](CNC(C)=O)OC3=O)cc2F)c1
MIC: > 16 µg/mL

MIC reading for CC(=O)NC[C@H]1CN(c2ccc(-n3cc(C(N)=O)cn3)c(F)c2)C(=O)O1 : > 16 µg/mL
